From: PubChem BioAssay (NCI)

Tested on: SR leukemia
assayDetails: NCI-60 one-dose screen, 48 h (100 = growth as untreated, 0 = no growth, -100 = all killed)
testContext: 10 µM
Compounds without any hit were thinned out: in the full panel of roughly 83,000, 20% have a hit.
Would you mind labelling by growth? At or over 20% is Fulfilled, under is Not fulfilled.

>  <compound>
COc1cc(Nc2ccnc(NCCCNc3ccnc4cc(Cl)ccc34)n2)cc(OC)c1

>  <systemName>
SR leukemia

>  <labelClass>
Not fulfilled

$$$$
>  <compound>
Cc1cc(Cl)nc(N(CCCNc2ccnc3cc(Cl)ccc23)Cc2cccs2)n1

>  <systemName>
SR leukemia

>  <labelClass>
Not fulfilled

$$$$
>  <compound>
Cc1cc2c(C)c3cc(C)c(N)cc3nc2cc1N

>  <systemName>
SR leukemia

>  <labelClass>
Not fulfilled

$$$$
>  <compound>
CCN(CC)CCOc1nc2ccc(OC)cc2c2c1-c1ccc(OC)cc1C2=O

>  <systemName>
SR leukemia

>  <labelClass>
Not fulfilled

$$$$
>  <compound>
COc1ccc2c(c1)O/C(=C\c1ccc([N+](=O)[O-])o1)C2=O

>  <systemName>
SR leukemia

>  <labelClass>
Not fulfilled

$$$$

Prompt: Determine whether this compound has growth no lower than 20%: O=C(Nc1ccc(CO)cc1)c1ccccc1Nc1ccnc(C(F)(F)F)c1
Response: Fulfilled

----------
Assign growth to each entry below.
Test system: A549/ATCC NSCLC
assayDetails: NCI-60 one-dose screen, 48 h (100 = growth as untreated, 0 = no growth, -100 = all killed)
testContext: 10 µM
This is part of a sample that, as a whole, favours compounds with a hit. Of some 83,000 tested, about 20% had one in any assay.
Answers are plain numbers, in %.

Check out these entries, answers already filled in.
>  <compound>
CSc1nc(=O)n(Cc2ccc(Cl)cc2)c(=O)[nH]1

>  <growth, %>
99.1

$$$$
>  <compound>
CCN(CC)CCC(=O)Nc1cccc2c1C(=O)c1c(c(O)c3ccccc3c1O)C2=O

>  <growth, %>
33.7

$$$$
>  <compound>
O=C1Nc2ccc(Cl)cc2/C1=C\c1c(-c2ccc(Cl)cc2)nc2sc(C3CC3)nn12

>  <growth, %>
56.4

$$$$
>  <compound>
Nc1nc(N)c(NC(=O)CNc2ccc(C(=O)O)cc2)c(N)n1

>  <growth, %>
102

$$$$
>  <compound>
COc1ccc(-c2nc3sc(C4CC4)nn3c2/C=C2/C(=O)Nc3ccc(OC)cc32)cc1

>  <growth, %>
75.5

$$$$

Field: growth. Fill in for each record below.
1. COc1ccc2c(c1)sc1nc(-c3ccccc3)c(-c3cccnc3)n12
2. COc1ccc2c(c1)sc1nc(-c3ccccc3)c(-c3ccc(O)c(OC)c3)n12
3. Cc1cc(N(CCCNc2ccnc3cc(Cl)ccc23)Cc2ccc3c(c2)OCO3)nc(N2CCCCC2)n1
4. CCOC1(OCC)OC(c2ccccc2)=C(C#N)C(/C=C\c2ccccc2)C1(OCC)OCC (stereo not given)
5. O=C1/C(=C/c2ccc(Cl)cc2)SC(=Nc2ccc(Cl)cc2)N1Cc1nc2ccccc2[nH]1

Response:
94.1
64.2
-32.8
82.5
70.8

----------
System: SK-MEL-28 melanoma
assayDetails: NCI-60 one-dose screen, 48 h (100 = growth as untreated, 0 = no growth, -100 = all killed)
testContext: 10 µM
About 83,000 compounds went through this panel and 20% of them were active in at least one assay; those are over-represented in the sample as a whole. Active and inactive are the calls of the source. How the source made its calls: active means growth percent below 10; inactive means the rest.
reportedProperty: growth

>  <compound>
CCN(CC)Cc1cc(Nc2ccnc3cc(Cl)ccc23)ccc1OC

>  <measuredValue>
108% (inactive)

$$$$
>  <compound>
O=C1c2ccc3c4c(ccc(c24)C(=O)N1CCNCc1ccccc1)C(=O)N(CCNCc1ccccc1)C3=O

>  <measuredValue>
6% (active)

$$$$
>  <compound>
c1ccc2c(c1)oc1c3cccnc3ccc21

>  <measuredValue>
92.7% (inactive)

$$$$
>  <compound>
C#Cc1ccc(-n2c(/C=C/c3ccc(O)cc3)nc3ncccc3c2=O)cc1

>  <measuredValue>
51.7% (inactive)

$$$$
>  <compound>
O=C1/C(=C\c2ccc(F)cc2)CN(C(=O)c2ccccc2)C/C1=C\c1ccc(F)cc1

>  <measuredValue>
34.8% (inactive)

$$$$

Field: growth. Fill in for each record below.
1. N#CCCN1C/C(=C/c2ccc(Cl)cc2)C(=O)/C(=C/c2ccc(Cl)cc2)C1
2. COc1ccc(-c2nn(-c3cccc(NC(=O)Nc4cccc(C(F)(F)F)c4)c3)cc2-c2ccncc2)cc1Cl
3. CCN(CC)CCC(CNc1c(C)cnc2cc(Cl)ccc12)c1ccc(Cl)cc1 (stereo not given)
4. N#CC1=C(Nc2ccccc2Cl)SC(c2ccccc2O)NC1=O (stereo not given)
5. O=C(Nc1cccc(-n2cc(-c3ccncc3)c(-c3ccc(O)c(Cl)c3)n2)c1)c1cc(C(F)(F)F)cc(C(F)(F)F)c1

Response:
-61.4% (active)
15.6% (inactive)
-88.8% (active)
109% (inactive)
70.8% (inactive)
